# Tested on: CCRF-CEM
# experimentDescription: NCI tumour cell line growth inhibition, 48 h
Activity calls are given as the source filed them. Cut-off read from the data, not from the text of the source: active = GI50 up to about 1.1 µM and inactive = higher.
Outcomes: YES for active, NO for inactive

>>> categorylabel("Cc1ccc(N/N=C2\\C3=C(CCC(C)(C)O3)C(=O)c3ccccc32)cc1")
"NO"
>>> categorylabel("O=C(O[C@H]1[C@@H]2C=CO[C@@H](OC3OC(CO)C(O)C(O)C3O)[C@@H]2[C@@]2(CO)O[C@@H]12)c1ccc(O)c(O)c1 (some centres undefined)")
"NO"
>>> categorylabel("COc1cc(C(c2ccc3c(c2)OCO3)N2C(=O)CCC2C(=O)O)cc(OC)c1OC (centres undefined)")
"NO"
>>> categorylabel("C=CC(Br)(CBr)CCC(Br)C(C)C (centres undefined)")
"YES"
>>> categorylabel("CCOC(=O)c1cc2c(C(=O)c3ccc([N+](=O)[O-])cc3)c(C(C)=O)ccc2[nH]1")
"NO"
>>> categorylabel("COc1ccccc1CC1(O)OC(=O)c2ccccc21 (centres undefined)")
"NO"
>>> categorylabel("CCN(CC)c1c(C(=O)/C=C/c2ccc(Cl)cc2)c(-c2ccccc2)nn(C)c1=O")
"NO"
>>> categorylabel("O=C1O[C@@H](c2ccccc2)C[C@@H]1CN1CCOCC1")
"NO"
>>> categorylabel("C=C1C(=O)O[C@@H]2/C=C(/C)[C@@H](OC(C)=O)C/C=C(\\C)C(O)[C@@H](OC(=O)/C(C)=C\\C)C12 (some centres undefined)")
"NO"

---

# Test system: HCC 2998
# experimentDescription: NCI tumour cell line growth inhibition, 48 h
The source made the active and inactive calls. Cut-off read from the data, not from the text of the source: active = GI50 up to about 1.1 µM and inactive = higher.
Outcomes: true (active), false (inactive)

>>> categorylabel("O=[N+]([O-])c1ccc(Cl)cc1C1ON=C(c2ccccc2)N1C12CC3CC(CC(C3)C1)C2 (stereo not given)")
"false"
>>> categorylabel("CCOC(=O)n1cncc1CC(NC(=O)Cc1c(C(=O)C=C(C)C)[nH]c2ccccc12)C(=O)OC (stereo not given)")
"false"
>>> categorylabel("COc1ccc(/C=C2\\C(=O)N(C)C(=O)c3cc(OC)c(OC)cc32)cc1OC")
"false"
>>> categorylabel("Cc1sc2nc(-c3ccc(Cl)c([N+](=O)[O-])c3)c(/C=N/NC(=N)N)n2c1C")
"true"
>>> categorylabel("CCOC(=O)/C=C/c1ccccn1")
"false"
>>> categorylabel("c1ccc2c(c1)Nc1ccccc1[P+]21c2ccccc2Nc2ccccc21")
"true"
>>> categorylabel("Cc1oc2c(cc(O)c3ccccc32)c2cccc1-2")
"false"
>>> categorylabel("CC(C)=C[C@H]1C[C@H](C)[C@H]2CC[C@H](C)c3c2c1c(C)c1ncoc31")
"false"
>>> categorylabel("CCOC(=O)C(C[Si](C)(C)C)P(=O)(OCC)OCC (stereo not given)")
"false"
>>> categorylabel("CCc1ccccc1-n1c2nc(=O)n(C)c(=O)c-2nc2ccccc21")
"false"

---

# Test system: OVCAR-3
# experimentDescription: NCI tumour cell line growth inhibition, 48 h
Active and inactive are the calls of the source. No stated cut-off is given here; in the data, active = GI50 up to about 1.1 µM and inactive = higher.
The entries below are paired with their reported GI50.
propertyMeasured: GI50

>>> observed("C[C@]12CCC(=O)C=C1C[C@@H](O)[C@@H]1[C@@H]2CC[C@@]2(C)[C@H]1CC[C@]2(C)O")
"> 100 µM (inactive)"
>>> observed("O=c1c2c3c(sc2nc2n1N=CN(c1ccc(F)cc1)C2)CCCC3")
"> 100 µM (inactive)"
>>> observed("Cc1ccc(N/N=C2\\C3=C(CCC(C)(C)O3)C(=O)c3ccccc32)cc1")
"24.2 µM (inactive)"
>>> observed("C#CCNC(=O)NC(CCCNC(=O)OCc1ccccc1)C(=O)OCc1ccccc1 (centres undefined)")
"> 100 µM (inactive)"
>>> observed("CSc1nc2ccccc2c(=O)n1/N=C1\\C(=O)N(CN2CCCCC2)c2ccc(Cl)cc21")
"59.3 µM (inactive)"
>>> observed("CC[n+]1c(-c2ccccc2)c2cc(N)ccc2c2ccc(N)cc21 [HOMIDIUM BROMIDE]")
"3.07 µM (inactive)"
>>> observed("O=[N+]([O-])C(/C=C(\\Cl)[N+](=O)[O-])=C(N1CCCCC1)N1CCCCC1")
"27.5 µM (inactive)"
>>> observed("NC(Cc1ccccc1)C(=O)OCN1C(=O)C2C3C=CC(C2C1=O)C1C2C(=O)N(COC(=O)C(N)Cc4ccccc4)C(=O)C2C31 (centres undefined)")
"33 µM (inactive)"
>>> observed("NC1=NC(c2ccc(Cl)cc2)N(c2ccc(S(=O)(=O)Nc3ncccn3)cc2)C(N)=N1 (centres undefined)")
"> 100 µM (inactive)"

---

# Test system: OVCAR-5
# experimentDescription: NCI tumour cell line growth inhibition, 48 h
Activity calls are given as the source filed them. No stated cut-off is given here; in the data, active = GI50 up to about 1.1 µM and inactive = higher.
propertyMeasured: GI50

>>> observed("C1CCN(CCC2CCCCN2)CC1 (stereo unspecified)")
"> 100 µM (inactive)"
>>> observed("CC(=O)OCC(OC(C)=O)C(OC(C)=O)C(OC(C)=O)C(=O)CNn1c(-c2ccccc2)nc2ccc(Br)cc2c1=O (stereo unspecified)")
"> 100 µM (inactive)"
>>> observed("Clc1ccc(/C=C/c2nc(-c3ccccc3)cn3c2nc2ccccc23)cc1Cl")
"> 100 µM (inactive)"
>>> observed("O=c1cc(-c2ccccc2)[nH]c2c(F)ccc(F)c12")
"43.9 µM (inactive)"
>>> observed("Cc1ccc2c(c1)CN(C(=O)CCC(=O)OCc1ccccc1)c1ccc(C)cc1CN2C(=O)CCC(=O)OCc1ccccc1")
"> 100 µM (inactive)"
>>> observed("O=C1NC(=O)C(c2c[nH]c3cc(Br)ccc23)=C1c1cnc[nH]1")
"> 100 µM (inactive)"
>>> observed("CCOc1ccc(NC(=O)C(=O)CC(=O)C2=C(C)Nc3ccccc3S2)cc1")
"> 50 µM (inactive)"
>>> observed("C[Si](C)(N[Si](C)(C)OCCc1ccccc1)OCCc1ccccc1")
"> 100 µM (inactive)"
>>> observed("O=S(=O)(c1ccc(/N=C2\\NC(c3ccc(O)cc3)(c3ccccc3O)c3ccccc32)cc1)c1ccc(/N=C2/NC(c3ccc(O)cc3)(c3ccccc3O)c3ccccc32)cc1 (stereo unspecified)")
"9.27 µM (inactive)"
>>> observed("C/C(C[n+]1ccccc1)=N\\N=C(N)N")
"> 100 µM (inactive)"
>>> observed("CC1=C(C(=O)N(C)c2ccc(Cl)c(C(=O)OC(C)C)c2)SCCO1")
"> 100 µM (inactive)"
>>> observed("COc1ccccc1CC1(O)OC(=O)c2ccccc21 (stereo unspecified)")
"> 100 µM (inactive)"
>>> observed("COC(=O)c1c2c(c(-c3ccccc3)c3c1-c1nc(Cl)ccc1CC3)CCc1ccc(Cl)nc1-2")
"> 100 µM (inactive)"
>>> observed("COc1ccc(C(C#N)NNc2nc(C)cc(O)n2)cc1OC (stereo unspecified)")
"> 100 µM (inactive)"
>>> observed("COc1ccccc1C1c2cc3c(cc2OC(O)(CO)C1C(=O)O)OCO3.COc1ccccc1C1c2cc3c(cc2OC2(O)COC(=O)C12)OCO3 (stereo unspecified)")
"> 100 µM (inactive)"
>>> observed("O=C1CC(=O)NC(NN2C(=O)/C(=C/c3ccc(Cl)c(Cl)c3)N=C2c2ccccc2)=N1")
"46.7 µM (inactive)"
>>> observed("COc1ccc(/N=C2\\C(=N/c3ccc(OC)cc3)N(S(=O)(=O)c3ccccc3)C(=S)N2c2ccc(OC)cc2)cc1")
"> 100 µM (inactive)"
>>> observed("CC1Cn2c(nc3ccccc32)NC1=O (stereo unspecified)")
"> 100 µM (inactive)"
>>> observed("Clc1ccccc1C(Nc1cnccn1)Nc1cnccn1")
"> 100 µM (inactive)"
>>> observed("Oc1ccccc1-c1nnc(S)n1/N=C/c1ccc(-c2ccc(Br)cc2)o1")
"> 100 µM (inactive)"
>>> observed("CN(CCc1ccc(Cl)c(Cl)c1)CCN(C)CCN1CCCC1")
"18.6 µM (inactive)"
>>> observed("Cc1nc(C(N)=S)sc1C(=O)/C=C/c1c(O)ccc2ccccc12")
"> 100 µM (inactive)"
>>> observed("Nc1ccc(S(=O)(=O)c2ccc(NCN3C(=O)NC(=O)C(=O)C3=O)cc2)cc1")
"> 100 µM (inactive)"
>>> observed("Oc1c(CN2CCN(c3ccccc3)CC2)cc(Br)c2cccnc12")
"4.07 µM (inactive)"
>>> observed("CCOC(=O)c1c(Cl)nc2ccccc2c1N=[N+]=[N-]")
"19.3 µM (inactive)"
>>> observed("CC(=O)Nc1ccc(/C=C2\\N=C(c3ccccc3)OC2=O)cc1")
"> 100 µM (inactive)"
>>> observed("CC(=O)CCNc1ccc(-c2cc(-c3ccc(N(C)C)cc3)nc3ccc4ccccc4c23)cc1")
"> 100 µM (inactive)"
>>> observed("COc1cc(NS(C)(=O)=O)ccc1NCc1c2ccccc2nc2ccccc12")
"> 100 µM (inactive)"
>>> observed("CCc1ccccc1-n1c2nc(=O)n(C)c(=O)c-2nc2ccccc21")
"20 µM (inactive)"
>>> observed("N/C(=N\\c1ccc(Cl)cc1)NS(=O)(=O)c1cccc2nsnc12")
"55.7 µM (inactive)"
>>> observed("Cc1nc(Nc2ccccc2)sc1C(=O)CC(=O)C(=O)Nc1c(C(C)C)cccc1C(C)C")
"> 100 µM (inactive)"
>>> observed("COc1ccc(C(=O)C(CC2C(=O)CC(C)(C)C(C(=O)C(=O)Nc3c(C)cccc3C)C2=O)c2ccc(OC)cc2)cc1 (stereo unspecified)")
"> 100 µM (inactive)"
>>> observed("COc1cc(Nc2ccc3c(c2)CCC3)nc(OC)n1")
"78 µM (inactive)"
>>> observed("CC(C)=CCNc1nc(Cl)nc2[nH]cnc12")
"> 100 µM (inactive)"
>>> observed("COc1ccc(-n2c3c(c4c(CN(C)C)c(O)ccc42)C(=O)c2ccccc2C3=O)cc1")
"4.92 µM (inactive)"
>>> observed("COC(O)C(=O)c1c2c(cc3c1CC1(Cc4cc5c(cc4C1)CCC5)C3)CCC2 (stereo unspecified)")
"18.2 µM (inactive)"
>>> observed("C/C(=C\\COP(=O)(O)OP(=O)(O)O)CCCOCc1ccccc1")
"> 100 µM (inactive)"
>>> observed("C#CCOC(=O)c1ccccc1O")
"> 100 µM (inactive)"
>>> observed("O=[N+]([O-])CCc1cccc([N+](=O)[O-])c1")
"> 100 µM (inactive)"
>>> observed("COc1ccc(/C=C/C(=O)c2sc(NC(=S)NC(=O)c3ccc(Cl)cc3)nc2C)cc1OC")
"> 100 µM (inactive)"
>>> observed("O=c1c2ccccc2[nH]c2ccc3c(Cl)n[nH]c3c12")
"41.1 µM (inactive)"

The origin of these recorded values is ChEMBL document CHEMBL1201862.
